tested on: MDA-MB-231; test: Growth inhibition of human MDA-MB-231 cells by sulforhodamine B assay; assay type: functional; settings: read-out: LC50 (the source's name)
quantity_kind: CC50 (µM)
Report the figure in µM without appending any unit label.

Examples with their reported CC50 follow.
{"test_smiles": "C/C=C(/C)C(=O)O[C@@H]1CC(C)(C)C[C@H]2C3=CC[C@@H]4[C@@]5(C)CC[C@H](O)C(C)(C)[C@@H]5CC[C@@]4(C)[C@]3(C)CC[C@@]12C(=O)O", "quantity_kind": "CC50", "scale_unit": "µM", "reading": 5.98}
{"test_smiles": "CC1(C)C[C@@H](O)[C@]2(C(=O)O)CC[C@]3(C)C(=CC[C@@H]4[C@@]5(C)C/C(=C\\C=C\\c6ccccc6)C(=O)C(C)(C)[C@@H]5CC[C@]43C)[C@@H]2C1", "quantity_kind": "CC50", "scale_unit": "µM", "reading": 12.5}
{"test_smiles": "CC(C)=CC(=O)O[C@@H]1CC(C)(C)C[C@H]2C3=CC[C@@H]4[C@@]5(C)CCC(=O)C(C)(C)[C@@H]5CC[C@@]4(C)[C@]3(C)CC[C@@]12C(=O)O", "quantity_kind": "CC50", "scale_unit": "µM", "reading": 71.1}

Then there is this compound:
QUERY: What value of measured CC50 is listed for "CC(C)=CC(=O)O[C@@H]1CC(C)(C)C[C@H]2C3=CC[C@@H]4[C@@]5(C)CC[C@H](O)C(C)(C)[C@@H]5CC[C@@]4(C)[C@]3(C)CC[C@@]12C(=O)O" ?
RESULT: 54.7
